assay: Trial 000015 Part 2: pharmacokinetics after multiple intranasal administrations; format: in vivo, human; details: female, human, plasma, inhaled or intranasal, 200 ug, multiple i.n. doses every 3 hours, 200 μg, Dose No. 1; read-out: tmax Mean (SD)
*1 amine or outer side, *2 acyl side, *3 side chain or, on linkers, in order; H or OH if unused. Where a SMILES comes first, the peptide text is derived from it. Bridges are numbered along the chain shown (N, C = ends). [ ]: non-standard residue; d: D form. N(4-F-Bzl)Gly = O=C(O)CNCc1ccc(F)cc1; X1 = O=C(CCC[*:2])[*:1]

{"molecule": "CC[C@H](C)[C@@H]1NC(=O)[C@H](Cc2ccc(O)cc2)NC(=O)CCCSC[C@@H](C(=O)N(CC(=O)N[C@@H](CC(C)C)C(=O)NCC(N)=O)Cc2ccc(F)cc2)NC(=O)[C@H](CC(N)=O)NC(=O)[C@H](CCC(N)=O)NC1=O [merotocin] (YIQNC[N(4-F-Bzl)Gly]LG-NH2; linker N-5 via X1)", "Tmax": "10.8 min"}

----------
assay: Trial 000015 Part 1: pharmacokinetics after single intranasal administration; conditions: female, human, plasma, inhaled or intranasal, 400 ug, AUCt Median, single i.n. dose 400 μg, N = 6
*1 amine or outer side, *2 acyl side, *3 side chain or, on linkers, in order; H or OH if unused. Where a SMILES comes first, the peptide text is derived from it. Bridges are numbered along the chain shown (N, C = ends). [ ]: non-standard residue; d: D form. N(4-F-Bzl)Gly = O=C(O)CNCc1ccc(F)cc1; X1 = O=C(CCC[*:2])[*:1]
readout.type: AUC(0-t) (ng·h/mL)

{"compound": "CC[C@H](C)[C@@H]1NC(=O)[C@H](Cc2ccc(O)cc2)NC(=O)CCCSC[C@@H](C(=O)N(CC(=O)N[C@@H](CC(C)C)C(=O)NCC(N)=O)Cc2ccc(F)cc2)NC(=O)[C@H](CC(N)=O)NC(=O)[C@H](CCC(N)=O)NC1=O [merotocin] (YIQNC[N(4-F-Bzl)Gly]LG-NH2; linker N-5 via X1)", "endpoint.result": 0.119}

----------
experiment: Trial 000015 Part 3: pharmacokinetics, single intranasal and single intravenous cross-over; settings: female, human, plasma, inhaled or intranasal, 400 ug, AUCt Geom. mean (% CV), cross-over, 400 μg i.n. single dose, N = 6
*1 amine or outer side, *2 acyl side, *3 side chain or, on linkers, in order; H or OH if unused. Where a SMILES comes first, the peptide text is derived from it. Bridges are numbered along the chain shown (N, C = ends). [ ]: non-standard residue; d: D form. N(4-F-Bzl)Gly = O=C(O)CNCc1ccc(F)cc1; X1 = O=C(CCC[*:2])[*:1]

{"molecule": "CC[C@H](C)[C@@H]1NC(=O)[C@H](Cc2ccc(O)cc2)NC(=O)CCCSC[C@@H](C(=O)N(CC(=O)N[C@@H](CC(C)C)C(=O)NCC(N)=O)Cc2ccc(F)cc2)NC(=O)[C@H](CC(N)=O)NC(=O)[C@H](CCC(N)=O)NC1=O [merotocin] (YIQNC[N(4-F-Bzl)Gly]LG-NH2; linker N-5 via X1)", "AUC(0-t)": "0.083 ng·h/mL"}

----------
experiment: clinical; conditions: female, human, in vivo, inhaled or intranasal, 400 ug, t1/2 Median
*1 amine or outer side, *2 acyl side, *3 side chain or, on linkers, in order; H or OH if unused. Where a SMILES comes first, the peptide text is derived from it. Bridges are numbered along the chain shown (N, C = ends). [ ]: non-standard residue; d: D form. N(4-F-Bzl)Gly = O=C(O)CNCc1ccc(F)cc1; X1 = O=C(CCC[*:2])[*:1]

{"compound": "CC[C@H](C)[C@@H]1NC(=O)[C@H](Cc2ccc(O)cc2)NC(=O)CCCSC[C@@H](C(=O)N(CC(=O)N[C@@H](CC(C)C)C(=O)NCC(N)=O)Cc2ccc(F)cc2)NC(=O)[C@H](CC(N)=O)NC(=O)[C@H](CCC(N)=O)NC1=O [merotocin] (YIQNC[N(4-F-Bzl)Gly]LG-NH2; linker N-5 via X1)", "units.label": "min", "half-life": 33}

----------
test: Trial 000015 Part 2: pharmacokinetics after multiple intranasal administrations; format: in vivo, human; conditions: female, human, plasma, inhaled or intranasal, 400 ug, multiple i.n. doses every 3 hours, 400 μg, Dose No. 2; read-out: t1/2 Harmonic mean (converted)
*1 amine or outer side, *2 acyl side, *3 side chain or, on linkers, in order; H or OH if unused. Where a SMILES comes first, the peptide text is derived from it. Bridges are numbered along the chain shown (N, C = ends). [ ]: non-standard residue; d: D form. N(4-F-Bzl)Gly = O=C(O)CNCc1ccc(F)cc1; X1 = O=C(CCC[*:2])[*:1]

{"molecule": "CC[C@H](C)[C@@H]1NC(=O)[C@H](Cc2ccc(O)cc2)NC(=O)CCCSC[C@@H](C(=O)N(CC(=O)N[C@@H](CC(C)C)C(=O)NCC(N)=O)Cc2ccc(F)cc2)NC(=O)[C@H](CC(N)=O)NC(=O)[C@H](CCC(N)=O)NC1=O [merotocin] (YIQNC[N(4-F-Bzl)Gly]LG-NH2; linker N-5 via X1)", "half-life, min": 23.4}

----------
test: Trial 000015 Part 2: pharmacokinetics after multiple intranasal administrations; assay type: in vivo, human; details: female, human, plasma, inhaled or intranasal, 50 ug, multiple i.n. doses every 3 hours, 50 μg, Dose No. 16; read-out: tmax Mean (SD)
*1 amine or outer side, *2 acyl side, *3 side chain or, on linkers, in order; H or OH if unused. Where a SMILES comes first, the peptide text is derived from it. Bridges are numbered along the chain shown (N, C = ends). [ ]: non-standard residue; d: D form. N(4-F-Bzl)Gly = O=C(O)CNCc1ccc(F)cc1; X1 = O=C(CCC[*:2])[*:1]
readout.type: Tmax (min)

{"compound": "CC[C@H](C)[C@@H]1NC(=O)[C@H](Cc2ccc(O)cc2)NC(=O)CCCSC[C@@H](C(=O)N(CC(=O)N[C@@H](CC(C)C)C(=O)NCC(N)=O)Cc2ccc(F)cc2)NC(=O)[C@H](CC(N)=O)NC(=O)[C@H](CCC(N)=O)NC1=O [merotocin] (YIQNC[N(4-F-Bzl)Gly]LG-NH2; linker N-5 via X1)", "units.label": "min", "endpoint.result": 20.4}

----------
assay: Trial 000015 Part 2: pharmacokinetics after multiple intranasal administrations; assay type: in vivo, human; conditions: female, human, plasma, inhaled or intranasal, 200 ug, multiple i.n. doses every 3 hours, 200 μg, Dose No. 2; read-out: Cmax Geom. mean (% CV)
*1 amine or outer side, *2 acyl side, *3 side chain or, on linkers, in order; H or OH if unused. Where a SMILES comes first, the peptide text is derived from it. Bridges are numbered along the chain shown (N, C = ends). [ ]: non-standard residue; d: D form. N(4-F-Bzl)Gly = O=C(O)CNCc1ccc(F)cc1; X1 = O=C(CCC[*:2])[*:1]
readout.type: Cmax (ng/mL)

{"compound": "CC[C@H](C)[C@@H]1NC(=O)[C@H](Cc2ccc(O)cc2)NC(=O)CCCSC[C@@H](C(=O)N(CC(=O)N[C@@H](CC(C)C)C(=O)NCC(N)=O)Cc2ccc(F)cc2)NC(=O)[C@H](CC(N)=O)NC(=O)[C@H](CCC(N)=O)NC1=O [merotocin] (YIQNC[N(4-F-Bzl)Gly]LG-NH2; linker N-5 via X1)", "readout.type": "Cmax", "endpoint.result": 0.115}

----------
assay: Trial 000015 Part 2: pharmacokinetics after multiple intranasal administrations; format: in vivo, human; settings: female, human, plasma, inhaled or intranasal, 200 ug, multiple i.n. doses every 3 hours, 200 μg, Dose No. 16; read-out: AUCt Geom. mean (% CV)
*1 amine or outer side, *2 acyl side, *3 side chain or, on linkers, in order; H or OH if unused. Where a SMILES comes first, the peptide text is derived from it. Bridges are numbered along the chain shown (N, C = ends). [ ]: non-standard residue; d: D form. N(4-F-Bzl)Gly = O=C(O)CNCc1ccc(F)cc1; X1 = O=C(CCC[*:2])[*:1]

{"molecule": "CC[C@H](C)[C@@H]1NC(=O)[C@H](Cc2ccc(O)cc2)NC(=O)CCCSC[C@@H](C(=O)N(CC(=O)N[C@@H](CC(C)C)C(=O)NCC(N)=O)Cc2ccc(F)cc2)NC(=O)[C@H](CC(N)=O)NC(=O)[C@H](CCC(N)=O)NC1=O [merotocin] (YIQNC[N(4-F-Bzl)Gly]LG-NH2; linker N-5 via X1)", "AUC(0-t)": "0.16 ng·h/mL"}

----------
assay: Trial 000015 Part 2: pharmacokinetics after multiple intranasal administrations; type: in vivo, human; details: female, human, plasma, inhaled or intranasal, 200 ug, multiple i.n. doses every 3 hours, 200 μg, Dose No. 2; read-out: AUCt Geom. mean (% CV)
*1 amine or outer side, *2 acyl side, *3 side chain or, on linkers, in order; H or OH if unused. Where a SMILES comes first, the peptide text is derived from it. Bridges are numbered along the chain shown (N, C = ends). [ ]: non-standard residue; d: D form. N(4-F-Bzl)Gly = O=C(O)CNCc1ccc(F)cc1; X1 = O=C(CCC[*:2])[*:1]
readout.type: AUC(0-t) (ng·h/mL)

{"molecule": "CC[C@H](C)[C@@H]1NC(=O)[C@H](Cc2ccc(O)cc2)NC(=O)CCCSC[C@@H](C(=O)N(CC(=O)N[C@@H](CC(C)C)C(=O)NCC(N)=O)Cc2ccc(F)cc2)NC(=O)[C@H](CC(N)=O)NC(=O)[C@H](CCC(N)=O)NC1=O [merotocin] (YIQNC[N(4-F-Bzl)Gly]LG-NH2; linker N-5 via X1)", "endpoint.result": 0.0752}
